Experiment: Metabolic stability in rat hepatocytes
Type: in vitro ADME
Settings: rat hepatocytes; read-out: In vitro Clint
Measurement name: hepatocyte CLint at 1 μM (µL/min/1e6 cells)

INSERT INTO results (molecule, unit_descriptor, quantitative_readout) VALUES
  ('CC12CCC(=O)C=C1CCCC2n1cc(-c2ccccc2)nn1 (stereo not shown) [Compound 45]', 'µL/min/1e6 cells', 72.2);

---

Assay: in vitro
Conditions: dog, MDCK, Recovery (%) AP-BL, MDCK cells
Measurement name: recovery (%)

INSERT INTO assay_data (entry_smiles, measurement_name, unit_descriptor, quantitative_readout) VALUES
  ('C[C@]12CC[C@H]3[C@@H](CC=C4C[C@@H](O)CC[C@@]43C)[C@@H]1CC[C@@H]2c1cn(Cc2ccccc2)nn1', 'recovery', '%', 70.2);

---

Assay: Metabolic stability in human hepatocytes
Assay type: in vitro ADME
Conditions: human, hepatocytes, human hepatocytes; read-out: In vitro T1/2
Measurement name: half-life at 1 µM (min)

INSERT INTO assay_data (compound, quantitative_readout) VALUES
  ('CC12CCC(=O)C=C1CCCC2n1cc(-c2ccccc2)nn1 (stereo not shown) [Compound 45]', 38.5);

---

Test: Caco-2 cell permeability
Type: in vitro ADME, human
Conditions: human, Caco-2, Caco-2 cells; read-out: Recovery (%) BL-AP
Measurement name: recovery (%)

INSERT INTO results (compound, measurement_name, unit_descriptor, quantitative_readout) VALUES
  ('CC(C)NCC(O)COc1cccc2ccccc12 (stereo not shown)', 'recovery', '%', 86.6),
  ('CC12CCC(=O)C=C1CCCC2n1cc(-c2ccccc2)nn1 (stereo not shown)', 'recovery', '%', 77.9),
  ('C[C@H]1O[C@@H](O[C@H]2[C@@H](O)C[C@H](O[C@H]3[C@@H](O)C[C@H](O[C@H]4CC[C@@]5(C)[C@H](CC[C@@H]6[C@@H]5C[C@@H](O)[C@]5(C)[C@@H](C7=CC(=O)OC7)CC[C@]65O)C4)O[C@@H]3C)O[C@@H]2C)C[C@H](O)[C@@H]1O', 'recovery', '%', 107),
  ('COc1cc2nc(N3CCN(C(=O)c4ccco4)CC3)nc(N)c2cc1OC', 'recovery', '%', 85);

---

Experiment: In vivo pharmacokinetic study
Design: species or system CD-1 mice
Details: male, CD-1, mouse; CD1 mice, PO 10 mg/kg, plasma
Measurement name: Cmax (ng/mL)

INSERT INTO assay_data (compound, quantitative_readout) VALUES
  ('CC12CCC(=O)C=C1CCCC2n1cc(-c2ccccc2)nn1 (stereo not shown) [Compound 45]', 79.7);

---

Test: Metabolic stability in rat hepatocytes
Assay type: in vitro ADME
Conditions: rat, hepatocytes, rat hepatocytes; read-out: Scale-up Clint
Measurement name: CLint scaled at 1 µM

INSERT INTO measurements (molecule, measurement_name, result) VALUES
  ('CC12CCC(=O)C=C1CCCC2n1cc(-c2ccccc2)nn1 (stereo not shown) [Compound 45]', 'CLint scaled at 1 µM', '338 mL/min/kg');

---

Assay: In vivo pharmacokinetic study
Set-up: species or system CD-1 mice
Conditions: male, CD-1, mouse, plasma; IV 10 mg/kg, 0.5 h
Protocol: Male CD-1 mice (approximately 6–8 weeks old, weighing 20–25 g, supplied by Vital River, Beijing, China) were used for the pharmacokinetic studies. Each mouse (n = 2) received either a bolus intravenous injection via the tail vein or oral gavage administration of the test compound. […] Plasma samples were analyzed using the LC/MS/MS method. […] Quantification Internal Standard Method […] 4. The bioavailability (F%) was calculated as following: […]
Measurement name: concentration at 0.5 h (ng/mL)

INSERT INTO assay_data (compound, measurement_name, unit_descriptor, quantitative_readout) VALUES
  ('CC12CCC(=O)C=C1CCCC2n1cc(-c2ccccc2)nn1 (stereo not shown)', 'concentration at 0.5 h', 'ng/mL', 124);

---

Test: Metabolic stability in mouse hepatocytes
Assay type: in vitro ADME
Conditions: mouse hepatocytes; read-out: In vitro Clint
Measurement name: hepatocyte CLint at 1 μM

INSERT INTO assay_data (compound, measurement_name, result) VALUES
  ('CC12CCC(=O)C=C1CCCC2n1cc(-c2ccccc2)nn1 (stereo not shown)', 'hepatocyte CLint at 1 μM', '77.1 µL/min/1e6 cells');

---

Assay: Caco-2 cell permeability
Assay type: in vitro ADME, human
Conditions: human, Caco-2, Caco-2 cells; read-out: Recovery (%) AP-BL
Listed molecules paired with reported recovery
Measurement name: recovery (%)

INSERT INTO assay_data (molecule, quantitative_readout) VALUES
  ('CC12CCC(=O)C=C1CCCC2n1cc(-c2ccccc2)nn1 (stereo not shown) [Compound 45]', 64.3),
  ('CC(C)NCC(O)COc1cccc2ccccc12 (stereo not shown) [Propranolol]', 72.8),
  ('COc1cc2nc(N3CCN(C(=O)c4ccco4)CC3)nc(N)c2cc1OC [Prazosin]', 71.4),
  ('C[C@H]1O[C@@H](O[C@H]2[C@@H](O)C[C@H](O[C@H]3[C@@H](O)C[C@H](O[C@H]4CC[C@@]5(C)[C@H](CC[C@@H]6[C@@H]5C[C@@H](O)[C@]5(C)[C@@H](C7=CC(=O)OC7)CC[C@]65O)C4)O[C@@H]3C)O[C@@H]2C)C[C@H](O)[C@@H]1O [Digoxin]', 88.7);

---

Assay: MDCK cell permeability
Details: dog, MDCK, Recovery (%) BL-AP, MDCK cells
Listed compounds paired with reported recovery
Measurement name: recovery (%)

INSERT INTO results (compound, measurement_name, unit_descriptor, quantitative_readout) VALUES
  ('COCCc1ccc(OCC(O)CNC(C)C)cc1 (centres unmarked)', 'recovery', '%', 97.1),
  ('C[C@H]1O[C@@H](O[C@H]2[C@@H](O)C[C@H](O[C@H]3[C@@H](O)C[C@H](O[C@H]4CC[C@@]5(C)[C@H](CC[C@@H]6[C@@H]5C[C@@H](O)[C@]5(C)[C@@H](C7=CC(=O)OC7)CC[C@]65O)C4)O[C@@H]3C)O[C@@H]2C)C[C@H](O)[C@@H]1O', 'recovery', '%', 106);

---

Experiment: In vivo pharmacokinetic study
Design: species or system CD-1 mice
Conditions: male, CD-1, mouse, plasma; CD1 mice, PO 10 mg/kg
Measurement name: Tmax (min)

INSERT INTO results (compound, unit_descriptor, quantitative_readout) VALUES
  ('CC12CCC(=O)C=C1CCCC2n1cc(-c2ccccc2)nn1 (stereo not shown) [Compound 45]', 'min', 30);

---

Test: Caco-2 cell permeability
Type: in vitro ADME, human
Conditions: human; Caco-2 cells; Papp(B-A)/Papp(A-B)
Listed compounds paired with reported efflux ratio
Measurement name: efflux ratio

INSERT INTO measurements (compound, measurement_name, quantitative_readout) VALUES
  ('CC12CCC(=O)C=C1CCCC2n1cc(-c2ccccc2)nn1 (stereo not drawn)', 'efflux ratio', 0.49),
  ('C[C@H]1O[C@@H](O[C@H]2[C@@H](O)C[C@H](O[C@H]3[C@@H](O)C[C@H](O[C@H]4CC[C@@]5(C)[C@H](CC[C@@H]6[C@@H]5C[C@@H](O)[C@]5(C)[C@@H](C7=CC(=O)OC7)CC[C@]65O)C4)O[C@@H]3C)O[C@@H]2C)C[C@H](O)[C@@H]1O', 'efflux ratio', 30),
  ('CC(C)NCC(O)COc1cccc2ccccc12 (stereo not drawn)', 'efflux ratio', 0.67);

---

Listed compounds paired with reported IC50
Test system: mouse sperm
Experiment: Mouse sperm total motility in vitro (CASA)
Assay type: cell-based
Conditions: simplified steroid analogs; mouse sperm motility
Measurement name: IC50 (nM)

INSERT INTO measurements (compound, measurement_name, unit_descriptor, quantitative_readout) VALUES
  ('C[C@]12CC[C@H](OC(=O)[C@@H](N)CCCCN)CC1=CCC1C2CC[C@@]2(C)C1CC[C@@H]2c1cn(Cc2ccccc2)nn1.Cl.Cl (some centres unmarked) [Compound 19]', 'IC50', 'nM', 0.032),
  ('C[C@]12CC[C@H]3[C@@H](CC=C4C[C@@H](O)CC[C@@]43C)[C@@H]1CC[C@H]2n1cc(-c2ccccc2)nn1 [Compound 24]', 'IC50', 'nM', 0.015),
  ('C[C@]12CC[C@H]3[C@@H](CC=C4C[C@H](N5CCOCC5)CC[C@@]43C)[C@@H]1CC[C@H]2n1cc(-c2ccccc2)nn1 [Compound 26]', 'IC50', 'nM', 0.031),
  ('C[C@]12CC[C@H]3[C@@H](CC=C4C[C@@H](O)CC[C@@]43C)[C@@H]1CC[C@@H]2c1c[nH]nn1 [Compound 15]', 'IC50', 'nM', 0.019),
  ('C[C@]12CC[C@H]3[C@@H](CC=C4C[C@@H](O)CC[C@@]43C)[C@@H]1CC[C@@H]2c1cn(Cc2ccccc2)nn1 [Compound 13]', 'IC50', 'nM', 0.024);
